- assay_explanation: Solubility of compound in 5 % DMSO in water by HPLC-MS analysis
- Type: physicochemical
measured_property: solubility (µM)

C=C(C)[C@@H]1CC[C@]2(C(=O)O)CC[C@]3(C)[C@H](CC[C@@H]4[C@@]5(C)Cc6sc(N)nc6C(C)(C)[C@@H]5CC[C@]43C)[C@@H]12 | 45

(P) C[C@H]1[C@H](C)CC[C@]2(C(=O)O)CC[C@]3(C)C(=CC[C@@H]4[C@@]5(C)CC(Br)C(=O)C(C)(C)[C@@H]5CC[C@]43C)[C@H]12 (stereo partly drawn)
(Q) CC1(C)CC[C@]2(C(=O)O)CC[C@]3(C)C(=CC[C@@H]4[C@@]5(C)Cc6sc(N)nc6C(C)(C)[C@@H]5CC[C@]43C)[C@@H]2C1
**Q:** Could you point out whether the larger solubility belongs to P or to Q ? Respond with the label that goes with your answer.
**A:** Q
